// provenance: the supplement of paper PMC3334620

system_name: Gcr1 (UniProt P07261)
Sequence: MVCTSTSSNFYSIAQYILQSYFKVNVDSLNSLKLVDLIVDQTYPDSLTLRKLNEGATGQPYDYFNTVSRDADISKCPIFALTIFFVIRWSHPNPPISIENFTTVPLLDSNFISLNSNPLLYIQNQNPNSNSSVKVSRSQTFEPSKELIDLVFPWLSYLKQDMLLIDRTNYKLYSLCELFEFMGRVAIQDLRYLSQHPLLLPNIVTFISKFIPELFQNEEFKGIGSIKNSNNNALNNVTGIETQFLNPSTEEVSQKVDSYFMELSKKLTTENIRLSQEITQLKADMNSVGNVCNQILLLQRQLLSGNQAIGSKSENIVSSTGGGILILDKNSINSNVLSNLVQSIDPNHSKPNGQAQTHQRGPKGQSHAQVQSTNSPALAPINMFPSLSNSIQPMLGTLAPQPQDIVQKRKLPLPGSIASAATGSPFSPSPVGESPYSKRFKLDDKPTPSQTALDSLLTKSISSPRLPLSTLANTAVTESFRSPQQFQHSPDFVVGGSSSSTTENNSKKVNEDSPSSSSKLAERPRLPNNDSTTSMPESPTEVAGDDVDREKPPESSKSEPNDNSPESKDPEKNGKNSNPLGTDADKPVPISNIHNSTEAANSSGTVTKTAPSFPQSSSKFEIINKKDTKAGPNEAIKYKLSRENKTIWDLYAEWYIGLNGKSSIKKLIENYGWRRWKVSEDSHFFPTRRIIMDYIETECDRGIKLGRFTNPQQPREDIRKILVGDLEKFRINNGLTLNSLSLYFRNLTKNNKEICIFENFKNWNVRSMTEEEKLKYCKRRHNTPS
assay_details: PBM E-score (8-mer binding enrichment) (E-score (-0.5 to 0.5)); higher = stronger / more preferred TF binding
settings: protein concentration: 100 nM; construct: GST-full length
Whole data set: some 33,000 sequences, median “E-score (-0.5 to 0.5)” near -0.011, cut for the highest 2% near 0.28. The entries come from a sample that favours the highest values as a whole.
endpoint_label: PBM E-score
Give your answer as a number; write no unit.

CCCCTGTA: 0.284
CGGATTTC: -0.122
GCCTGTAA: 0.109
CGGATTCA: -0.0182
CGGATTCC: 0.463

Req: Would you mind telling me what PBM E-score value was observed for ACCTGTAT ?
Resp: 0.322

Req: Can you handle AGGATTCG next?
Resp: 0.126

Req: Moving on to the next sequence: GCCCTGTA
Resp: 0.0785

Req: Quick one: CAGGAATC
Resp: 0.394

Req: Next: GAGGAATC
Resp: 0.345

Req: And for AGGATTCC ?
Resp: 0.373
